# Test system: HCT-15 colon
# test.summary: NCI-60 one-dose screen, 48 h (100 = growth as untreated, 0 = no growth, -100 = all killed)
# cond: 10 µM unless noted
About 83,000 compounds went through this panel and 20% of them were active in at least one assay; those are over-represented in the sample as a whole. Active and inactive are the calls of the source. How the source made its calls: active means growth percent below 10; inactive means the rest.
Entries annotated with measured growth

Known growth results, listed for orientation:
item.smiles	outcome.measure	result
c1ccc(N2c3nc4ccccc4cc3Sc3cc4ccccc4nc32)nc1	growth	95.6% (inactive)
CCN(CC)CCSc1ncnc2c1cnn2-c1ccc(S(N)(=O)=O)cc1	growth	89% (inactive)

So for COCCOCCOCCOCCOc1ccc2c(c1)C(=O)c1nc3ncccc3c(=O)n1-2 , the logged growth turned out to be -95.6% (active)
